Test system: Human Liver Phosphoramidase
Assay: Structure Activity Relationship of Human Liver Phosphoramidase (human liver homogenate)
Format: in vitro ADME
Conditions: pH 7.4
Metric: Phosphoramidase Activity (Rate of 3.1 or 3.58 production, nmoles/mn/mg liver protein)

Completed entries (count: 5):
CCOC(=O)[C@H](Cc1ccccc1)NP(=O)(N[C@@H](Cc1ccccc1)C(=O)OCC)c1ccc(-c2nc(N)sc2CC(C)C)o1: 0.029 nmoles/mn/mg liver protein
CCCSc1sc(N)nc1-c1ccc(P(=O)(N[C@@H](COC(C)(C)C)C(=O)OC)N[C@@H](COC(C)(C)C)C(=O)OC)o1: 0.025 nmoles/mn/mg liver protein
CCOC(=O)[C@H](C)NP(=O)(N[C@@H](C)C(=O)OCC)c1ccc(-c2nc(N)sc2CC(C)C)o1: 0.022 nmoles/mn/mg liver protein
CCOC(=O)CN(C)P(=O)(c1ccc(-c2nc(N)sc2CC(C)C)o1)N(C)CC(=O)OCC: 0.005 nmoles/mn/mg liver protein
CCOC(=O)CNP(=O)(NCC(=O)OCC)c1ccc(-c2nc(N)sc2CC(C)C)o1: 0.019 nmoles/mn/mg liver protein

Tell me the measured Phosphoramidase Activity (Rate of 3.1 or 3.58 production, nmoles/mn/mg liver protein) of COC(=O)[C@H](CC(C)C)NP(=O)(N[C@@H](CC(C)C)C(=O)OC)c1ccc(-c2nc(N)sc2CC(C)C)o1 , please.
0.022 nmoles/mn/mg liver protein

CCCSc1sc(N)nc1-c1ccc(P(=O)(N[C@@H](CCC)C(=O)OCC)N[C@@H](CCC)C(=O)OCC)o1 , same question.
0.033 nmoles/mn/mg liver protein

Another molecule to check: CCCSc1sc(N)nc1-c1ccc(P(=O)(NC2(C(=O)OCC)CCCC2)NC2(C(=O)OCC)CCCC2)o1
0.032 nmoles/mn/mg liver protein

Quick one: CCCSc1sc(N)nc1-c1ccc(P(=O)(NC(C)C(=O)OC(C)C)NC(C)C(=O)OC(C)C)o1 (stereo not drawn)
0.085 nmoles/mn/mg liver protein
